Assay: in vitro
Conditions: mouse, plasma

| COMPOUND | fraction unbound |
| --- | --- |
| C[C@@H]1[C@H]2C[C@@H](C[C@H]1NC(=O)c1cc3c(F)cc(F)cc3[nH]1)C2(C)C [compound 2] | 0.032 |

====

Test: Single dose pharmacokinetic study in mice (oral formulations, i.v.)
Type: in vivo, Swiss Webster mice
Settings: male, Swiss Webster, mouse, in vivo, po, 10 mg/kg, Tmax
PROPERTY_MEASURED: Tmax (h)

| STRUCTURE_SMILES | PROPERTY_MEASURED | UNIT_TAG | RECORDED_RESULT |
| --- | --- | --- | --- |
| C[C@@H]1[C@H]2C[C@@H](C[C@H]1NC(=O)c1cc3c(F)cc(F)cc3[nH]1)C2(C)C | Tmax | h | 1.25 |
